Assay: Clearance in Sprague-Dawley rat at 2 mg/kg, iv
Format: ADME, organism-based
Set-up: dose 2 mg/kg, route intravenous
Conditions: in vivo

Smiles Record: C=C[C@@H]1C[C@]1(NC(=O)[C@@H]1C[C@@H]2CN1C(=O)[C@H](C(C)(C)C)NC(=O)O[C@@H]1C[C@H]1CCCCCc1nc3ccc(OC)cc3nc1O2)C(=O)[N-]S(=O)(=O)C1CC1.[K+]
Unit Annotation: mL/min/kg
clearance: 28

----------
List of concentration at 4 h values.
Experiment: Drug uptake in Sprague-Dawley rat liver at 5 mg/kg, po after 4 hrs by HPLC analysis
Type: ADME, organism-based
Set-up: dose 5 mg/kg, route oral
Details: read-out: Drug uptake
Reported Endpoint: concentration at 4 h (µM)

Smiles Record: C=C[C@@H]1C[C@]1(NC(=O)[C@@H]1C[C@@H]2CN1C(=O)[C@H](C(C)(C)C)NC(=O)O[C@@H]1C[C@H]1CCCCCc1nc3ccc(OC)cc3cc1O2)C(=O)NS(=O)(=O)C1CC1
Reported Endpoint: concentration at 4 h
Test Result: 20
//
Smiles Record: C=C[C@@H]1C[C@]1(NC(=O)[C@@H]1C[C@@H]2CN1C(=O)[C@H](C1CCCCC1)NC(=O)OCC(C)(C)CCCc1ccc3c(c1)c(nc1ccccc13)O2)C(=O)NS(=O)(=O)C1CC1
Reported Endpoint: concentration at 4 h
Test Result: 96
//
Smiles Record: C=C[C@@H]1C[C@]1(NC(=O)[C@@H]1C[C@@H]2CN1C(=O)[C@H](C1CCCCC1)NC(=O)OCC(C)(C)CCCc1ccc3ccnc(c3c1)O2)C(=O)NS(=O)(=O)C1CC1
Reported Endpoint: concentration at 4 h
Test Result: 21
//
Smiles Record: C=C[C@@H]1C[C@]1(NC(=O)[C@@H]1C[C@@H]2CN1C(=O)[C@H](C1CCCCC1)NC(=O)OCC(C)(C)CCCCCc1nc3ccc(OC)cc3cc1O2)C(=O)NS(=O)(=O)C1CC1
Reported Endpoint: concentration at 4 h
Test Result: 9.8
//
Smiles Record: C=C[C@@H]1C[C@]1(NC(=O)[C@@H]1C[C@@H]2CN1C(=O)[C@H](C1CCCCC1)NC(=O)OCC(C)(C)CCCCCc1nc3ccccc3cc1O2)C(=O)NS(=O)(=O)C1CC1
Reported Endpoint: concentration at 4 h
Test Result: 63

----------
Assay: Drug uptake in Sprague-Dawley rat liver at 5 mg/kg, po measured after 24 hrs by HPLC analysis
Type: ADME, organism-based
Design: dose 5 mg/kg, route oral
Conditions: read-out: Drug uptake
Reported Endpoint: concentration at 24 h (nM)

Smiles Record: C=C[C@@H]1C[C@]1(NC(=O)[C@@H]1C[C@@H]2CN1C(=O)[C@H](C(C)(C)C)NC(=O)O[C@@H]1C[C@H]1CCCCCc1nc3ccc(OC)cc3nc1O2)C(=O)[N-]S(=O)(=O)C1CC1.[K+]
Test Result: 200

----------
List of IC50 values.
Tested on: Hepatitis C virus
Experiment: Antiviral activity against Hepatitis C virus (isolate Con1) genotype 1b infected in human HuH7 cells assessed as inhibition of viral replication after 24 hrs in presence of 50% NHS
Format: functional, organism-based, Hepacivirus hominis
Conditions: genotype 1b Con1, Huh-7, 24 h

Smiles Record: C=C[C@@H]1C[C@]1(NC(=O)[C@@H]1C[C@@H]2CN1C(=O)[C@H](C(C)(C)C)NC(=O)OCCCCC/C=C/c1cc3ccccc3nc1O2)C(=O)NS(=O)(=O)C1CC1
IC50 / nM: 21

Smiles Record: C=C[C@@H]1C[C@]1(NC(=O)[C@@H]1C[C@@H]2CN1C(=O)[C@H](C(C)(C)C)NC(=O)OCCCCC/C=C/c1nc3ccccc3cc1O2)C(=O)NS(=O)(=O)C1CC1
IC50 / nM: 44

Smiles Record: C=C[C@@H]1C[C@]1(NC(=O)[C@@H]1C[C@@H]2CN1C(=O)[C@H](C1CCCCC1)NC(=O)OCC(C)(C)CCC/C=C/c1nc3ccccc3cc1O2)C(=O)NS(=O)(=O)C1CC1
IC50 / nM: 37

Reference source for all entries: ChEMBL document CHEMBL2062451
